Items are presented alongside their recorded %Inh.
- Tested on: CDK4-cyclinD3;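 note: KINOMEscan kinase panel screen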
- Experimental conditions: concentration: 1 μM,replicates: in singlicate; n = 1
# include the unit after the value

1. Cc1occc1-c1nc(N)c(OC[C@@H](N)Cc2c[nH]c3ccccc23)cc1-c1cc2c(C)n[nH]c2cn1 [GSK1660450]    0%

[ask] Fill blank: measured %Inh of the compound Cc1cc2cn[nH]c2cc1-c1cccc2c(N)c(C(N)=O)nnc12 is ____.
[reply] 35%

[ask] Check Cc1cc(C(=O)Nc2ccc(Oc3ccc4nc(NC(=O)C5CC5)cn4n3)cc2)nn1-c1ccccc1 too.
[reply] 0%

[ask] Check Cc1n[nH]c2ccc(-c3cc(OC[C@@H](N)Cc4ccccc4)cnc3-c3ccoc3)cc12.O=C(O)C(F)(F)F.O=C(O)C(F)(F)F [GSK507358] too.
[reply] 0%
